TEST PROTOCOL: Aqueous formulations of Compound 1 (water, PBS, saline), concentration by HPLC
Type: physicochemical
TEST CONTEXT: tap water, target conc. 400 mg/ml
Calculated Conc. listing for selected compounds.
Respond with the figure and its unit, in that order.

COMPOUND: COC(=O)CCC(=O)SCCNC(C)=O [Batch 3]
Calculated Conc.: 381 mg/mL
//
COMPOUND: COC(=O)CCC(=O)SCCNC(C)=O [Batch 12]
Calculated Conc.: 378 mg/mL
//
COMPOUND: COC(=O)CCC(=O)SCCNC(C)=O [Batch 14]
Calculated Conc.: 366 mg/mL

Query: Calculated Conc. for COC(=O)CCC(=O)SCCNC(C)=O [Batch 13] ?
Response: 395 mg/mL
